- Tested on: A498
- measurement_description: NCI tumour cell line growth inhibition, 48 h
Calls of active or inactive are those of the source. Cut-off read from the data, not from the text of the source: active = GI50 up to about 1.1 µM and inactive = higher.
measured_quantity: GI50

As a guide, the following entries are already answered.
COc1ccc(/C=C2/S/C(=N\c3ccccc3)N(NC(=O)Cc3ccccc3)C2=O)c(OC)c1    > 100 µM (inactive)
CC1(C)C2CCC(=O)C1CC2 (stereo unspecified)    > 100 µM (inactive)
CCOC(=O)Cn1c(=O)n(C)c(=O)c2[nH]cnc21    > 100 µM (inactive)
O=C(CC(C(=O)c1cccs1)c1ccsc1)c1ccc(Cl)s1 (stereo unspecified)    > 100 µM (inactive)
O=[N+]([O-])c1cc(C(F)(F)F)ccc1S(=O)(=O)N[C@@H]1CCCC[C@H]1NS(=O)(=O)c1ccc(C(F)(F)F)cc1[N+](=O)[O-]    5.43 µM (inactive)

Return reported GI50; argument: CSc1ncnc2c1cnn2CCCCO > 100 µM (inactive)

And the next one, COC(=O)C1=CC2OC13CC1CCC3(C2=O)C1(C)C (stereo unspecified) ? 19.1 µM (inactive)

Another compound to check: CC12CP(=O)(c3ccccc3)CC1c1ccccc1C2c1ccccc1 (stereo unspecified) 27.7 µM (inactive)

Thanks! And CCOC(=O)c1cccc(NC(=O)CI)c1 ? 2.07 µM (inactive)

Next compound: CCc1c(N=[N+]=[N-])c2ccccc2oc1=O > 100 µM (inactive)

Moving on to the next compound: CCCCCCCCCCCCNC(=S)OCCCC > 100 µM (inactive)

----------
Recorded GI50 for the following compounds
- System: DU-145
- measurement_description: NCI tumour cell line growth inhibition, 48 h
Calls of active or inactive are those of the source. Rule as the data show it: active = GI50 up to about 1.1 µM and inactive = higher.

Cc1csc(NCc2ccc(Cl)cc2)n1    > 100 µM (inactive)

What measured GI50 goes with O=c1c(Cl)nsnc1Cl ? 17.3 µM (inactive)

Let us now turn to O=C(NCCNCCO)N/N=C/c1ccc(Cl)cc1 > 100 µM (inactive)

Can you handle Cc1ccc([C@@H]2[C@@H](C(=O)c3ccccn3)[C@H](c3ccc(C)cc3)C[C@](O)(c3ccccn3)[C@H]2C(=O)c2ccccn2)cc1 next? 2.17 µM (inactive)

Would you mind doing CSc1ncnc2c1cnn2CCCCO as well? > 100 µM (inactive)

Now the compound O=C1NC(Nc2cccc(Cl)c2)=N/C1=C\c1ccc(Cl)c(Cl)c1 7.52 µM (inactive)

Check O=c1cc(-c2ccncc2)[nH]c2cc3c(cc12)OCO3 too. > 100 µM (inactive)

Field entry: CCOP(=O)(/C=C\n1cc(C)c(=O)[nH]c1=O)OCC > 100 µM (inactive)

Try this compound next: Cc1ccc(/C=C2\CCS(=O)(=O)c3ccccc3C2=O)cc1 14.2 µM (inactive)

----------
- Tested on: HL-60
- measurement_description: NCI tumour cell line growth inhibition, 48 h
Active and inactive are the calls of the source. Rule as the data show it: active = GI50 up to about 1.1 µM and inactive = higher.
Parameter: GI50. Scope: all listed entries.

Example entries and their recorded answers appear below.
COC(=O)C(=O)C1(CCC(C)=O)c2ccccc2-c2c(C)ccc(C)c21 (stereo unspecified)    10.3 µM (inactive)
C/C(CC(=O)Nc1ccc(NC(=O)C/C(C)=N\NC(N)=O)cc1)=N/NC(N)=O    > 61.7 µM (inactive)
CC12OC(=O)[C@@]3(O)CCC4C(C[C@H]5O[C@]56CC=CC(=O)[C@]46C)C45OC[C@H]6C(=O)O[C@@H]1C[C@@]6(C)[C@H](C4=O)C23O5 (stereo partly specified)    0.121 µM (active)

Please report the recorded GI50 for CC1(c2ccccc2)CC(c2ccccc2)=NO1 (stereo unspecified) . > 100 µM (inactive)

Same question, O=C(NNC(=O)c1cc(/C=C/c2cccc([N+](=O)[O-])c2)nc(S)n1)Nc1ccc(Cl)cc1 this time 0.883 µM (active)

// query: C=CC(CCc1ccc(C(=O)OCC)cc1)c1c(N)nc(N)[nH]c1=O (stereo unspecified) 28.5 µM (inactive)

Note, next up: C=C1CC[C@@H]2[C@](C)(COC(=O)CCC(=O)OC)CCC[C@@]2(C)[C@@H]1CCC1=CC(=O)OC1 20.3 µM (inactive)

What do you have for Cc1ccc(-c2nc3n(c2/C=N\N=C(N)N)CCS3)cc1 ? 33.3 µM (inactive)

Same lookup for CCOC(=O)C(=O)/C=C(\C)Nc1c(NC2OCC(OC(C)=O)C(OC(C)=O)C2OC(C)=O)nc(SC)[nH]c1=O (stereo unspecified) , please. > 10 µM (inactive)

Cool, now COc1ccc2c(CN3CCCCC3CO)cc3cc(OC)c(OC)cc3c2c1 (stereo unspecified) 3.38 µM (inactive)

----------
- Tested on: DMS-273
- measurement_description: NCI tumour cell line growth inhibition, 48 h
Activity calls are given as the source filed them. Cut-off read from the data, not from the text of the source: active = GI50 up to about 1.1 µM and inactive = higher.
Entries and their GI50

See these solved cases before continuing.
O=C(Cn1cc(I)c(C(=O)NCC(O)CO)n1)NCC(O)CO (stereo unspecified)    > 100 µM (inactive)
CN(C)CCNC(=O)c1cccc2[nH]c(-c3ccccc3)nc12    14.5 µM (inactive)

Consider the compound CC1(C)O[C@@H](CC/C=C/CO)[C@H](CC/C=C/CO)O1 and give its measured GI50. > 100 µM (inactive)

Lookup O=C(NC(Cc1ccc(I)cc1)C(=O)O)c1ccc(I)cc1 (stereo unspecified) 94.8 µM (inactive)

Let us now turn to CC(C)(C)N1C(C(=O)c2ccccc2)C1c1ccccc1 (stereo unspecified) > 100 µM (inactive)

Another compound to look at: COc1ccc(/C=C2\CCNC2=O)cc1 > 100 µM (inactive)

----------
Entries and their GI50
- Test system: A549
- measurement_description: NCI tumour cell line growth inhibition, 48 h
Calls of active or inactive are those of the source. Cut-off read from the data, not from the text of the source: active = GI50 up to about 1.1 µM and inactive = higher.

CC(=O)c1cc(CC2Cc3cc4c(cc3C2=O)CCC4)cc2c1CCC2 (stereo not given)    29.8 µM (inactive)
C[C@]12CC[C@@H]3c4ccc(O)cc4CC[C@H]3[C@@H]1C/C(=C\c1ccncc1)C2=O    19.1 µM (inactive)
C[N+](C)(C)CC(=O)N/N=C(/Cc1cc(=O)oc2cc(O)ccc12)C(=O)Nc1ccc(Cl)cc1    > 100 µM (inactive)
O=C(O)CCC(C(=O)O)N1C(=O)C2C3CCC(C3)C2C1=O (stereo not given)    > 100 µM (inactive)

Moving on to another molecule below.
Which GI50 is listed for O=C(O)C1Cc2ccccc2OC1=O (stereo not given) ? > 100 µM (inactive)

----------
- Test system: HOP-62
- measurement_description: NCI tumour cell line growth inhibition, 48 h
Calls of active or inactive are those of the source. Rule as the data show it: active = GI50 up to about 1.1 µM and inactive = higher.
measured_quantity: GI50

Can you look up the measured GI50 of N=c1oc2ccc3ccccc3c2cc1C(N)=O for me? 48.3 µM (inactive)

Try this molecule next: CN(C)[C@@H]1C(O)=C(C(N)=O)C(=O)[C@@]2(O)C(O)=C3C(=O)c4c(O)cccc4C[C@H]3C[C@@H]12 2 µM (inactive)

----------
- Tested on: MDA-MB-231
- measurement_description: NCI tumour cell line growth inhibition, 48 h
Active and inactive are the calls of the source. No stated cut-off is given here; in the data, active = GI50 up to about 1.1 µM and inactive = higher. Where a SMILES comes first, the peptide text is derived from it. The star is where a group is joined. Boc = CC(C)(C)OC(=O)*
measured_quantity: GI50

Illustrative cases are given below, each with its answer.
COc1cc(C=O)cc(/C=N/c2ccccn2)c1O    9.02 µM (inactive)
CNC(=S)N/N=C(\C)c1ccc(OC)cc1O    > 100 µM (inactive)
COc1ccc(NC(=O)CC(=O)N2N=C(c3ccccc3)C(/N=N/c3ccc(S(=O)(=O)CCOS(=O)(=O)O)cc3)C2=O)cc1 (centres undefined)    > 100 µM (inactive)
CNC(=O)CNC(=O)C(NC(=O)CNC(=O)C1CCCN1C(=O)C(C)NC(=O)C(NC(=O)OC(C)(C)C)C(C)C)C(C)C (centres undefined) (Boc-VAPGVG-NHMe; configuration not given here)    > 100 µM (inactive)
C[N+]1(C)C2CC(OC(=O)C(CO)c3ccccc3)CC1C1OC12 (centres undefined)    > 100 µM (inactive)
Cc1cc(NC(=S)SCc2ccc(F)cc2)c([N+](=O)[O-])cc1C    14.6 µM (inactive)

Recorded GI50 for O=c1c2cc(Br)cc(Br)c2[nH]c(=S)n1-c1ccc(/N=N/c2ccc(O)c3cccnc23)cc1 with MDA-MB-231, please? 32.2 µM (inactive)

Then COC(=O)[C@@H]1O[C@]12[C@@H](CO[Si](C)(C)C(C)(C)C)O[C@@H](n1cc(C)c(=O)[nH]c1=O)[C@@H]2O[Si](C)(C)C(C)(C)C ? 19.9 µM (inactive)

Now the molecule COc1ccc(N[C@H]([C@@H](c2ccccc2)[S+]([O-])c2ccc(C)cc2)C(F)(F)F)cc1 (some centres undefined) 32.9 µM (inactive)
